Attribution: ChEMBL document CHEMBL5308504

system: UniProt:P22607
Sequence (P22607 23-806 limits assumed): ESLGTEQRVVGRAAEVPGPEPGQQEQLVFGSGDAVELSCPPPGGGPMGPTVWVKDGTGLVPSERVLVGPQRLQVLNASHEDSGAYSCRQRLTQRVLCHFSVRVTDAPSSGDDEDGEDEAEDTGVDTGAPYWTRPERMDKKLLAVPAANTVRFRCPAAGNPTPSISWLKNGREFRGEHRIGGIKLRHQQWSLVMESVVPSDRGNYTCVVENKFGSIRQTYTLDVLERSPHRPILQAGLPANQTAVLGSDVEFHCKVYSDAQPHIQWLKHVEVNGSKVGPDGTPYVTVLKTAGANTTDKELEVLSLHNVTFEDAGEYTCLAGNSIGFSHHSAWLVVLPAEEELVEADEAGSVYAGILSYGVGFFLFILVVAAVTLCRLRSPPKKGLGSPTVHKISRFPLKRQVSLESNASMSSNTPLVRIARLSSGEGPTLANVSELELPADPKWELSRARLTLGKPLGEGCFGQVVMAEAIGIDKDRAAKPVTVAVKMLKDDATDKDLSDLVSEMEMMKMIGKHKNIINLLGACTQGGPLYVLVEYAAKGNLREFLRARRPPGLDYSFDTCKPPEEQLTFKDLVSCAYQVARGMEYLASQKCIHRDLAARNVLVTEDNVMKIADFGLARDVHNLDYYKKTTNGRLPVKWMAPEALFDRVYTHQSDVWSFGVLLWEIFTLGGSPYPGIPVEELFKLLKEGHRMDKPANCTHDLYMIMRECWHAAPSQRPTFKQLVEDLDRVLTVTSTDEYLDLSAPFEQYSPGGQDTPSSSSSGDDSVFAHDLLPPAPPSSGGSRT
assay conditions: Compound concentration 20.0 uM, Protein concentration 2.0 uM, Result type QC Liability
Description: Thermal Shift Assay. Domain: start/stop: P449-E759
Measured ΔTm values are reported for all entries that follow.
Write it as a number; the unit °C goes unstated.

1. COc1cc(-c2cn(C)c(=O)c3cnccc23)c(OC)cc1CN(C)C: 0.84
2. CCc1ccccc1C(=O)Nc1n[nH]c2c(C)c(F)c(C3C(C#N)=C(C)N(C)C(C)=C3C#N)cc12: 2.59
3. COCCN1CCN(CCn2ccc(Nc3ncc4c(n3)-c3c(nn(C)c3-c3ccccc3)C[C@H]4C)n2)CC1: 3.58
4. COc1ccc(-c2c(-c3ccccc3)oc3ncnc(O[C@H](C)CCCCC(=O)O)c23)cc1: -0.48
5. CCCCNc1ncc2c(-c3ccc(CN4CCN(C)CC4)cc3)cn([C@H]3CC[C@H](O)CC3)c2n1: 7.9

Checklist item: ΔTm tested on UniProt:P22607, entry CCCS(=O)(=O)N[C@H]1C[C@@H](N(C)c2ncnc3[nH]ccc23)C1 , value?
1.73

Checklist item: ΔTm tested on UniProt:P22607, entry CN(c1ccc(C(F)(F)F)cc1)S(=O)(=O)c1ccc(C(=O)Nc2nc(-c3ccccn3)cs2)cc1 , value?
8.54

Checklist item: ΔTm tested on UniProt:P22607, entry COc1c(-c2cn(C3CCC(=O)NC3=O)nn2)csc1C(=O)N1CCCC1 (stereo not drawn) , value?
0.59

Checklist item: ΔTm tested on UniProt:P22607, entry CN1Cc2nccc(-c3cn(C)nc3-c3ccc(F)cc3)c2C1=O , value?
0.27

Checklist item: ΔTm tested on UniProt:P22607, entry CCN(CC)C(=O)C1CN2CCc3cc(OC)c(OC)cc3C2CC1OC(C)=O (stereo not drawn) , value?
0.43

Checklist item: ΔTm tested on UniProt:P22607, entry CNc1[nH]c(Nc2ccc(C(=O)N3CCOCC3)cc2OC)nc2ncc(Cl)c1-2 , value?
0.62

Checklist item: ΔTm tested on UniProt:P22607, entry Cc1cccc(CC(=O)N2CCc3c2ccc(-c2cn(C)c4ncnc(N)c24)c3F)n1 , value?
-0.88

Checklist item: ΔTm tested on UniProt:P22607, entry Cc1nc(-c2ccc(C(F)(F)F)cc2)sc1C(=O)NCc1ccc(OC(C)(C)C(=O)O)cc1 , value?
0.71

Checklist item: ΔTm tested on UniProt:P22607, entry COc1cc(C(=O)NCCOCCOCCOCCC(=O)Nc2cccc3c2C(=O)N(C2CCC(=O)NC2=O)C3=O)ccc1Nc1ncc(C(F)(F)F)c(Oc2cccc3c2C(=O)CC3)n1 (stereo not drawn) , value?
-3.01

Checklist item: ΔTm tested on UniProt:P22607, entry COCCNC1CCC(Nc2cc(-c3csc(NCC4(C#N)CCOCC4)n3)c(Cl)cn2)CC1 (stereo not drawn) , value?
0.74

Checklist item: ΔTm tested on UniProt:P22607, entry CN(C)c1ccc(-c2cc3ncccc3c(OCCCCO)n2)cc1 , value?
3.37

Checklist item: ΔTm tested on UniProt:P22607, entry COc1c(NC(=O)c2cc3cccc(Oc4ccnc(C(=O)N5CCN(C)CC5)c4)c3n2C)cc(C(C)(C)C)cc1NS(C)(=O)=O , value?
1.12

Checklist item: ΔTm tested on UniProt:P22607, entry CC(=O)Nc1nc(C)c(S(=O)(=O)Nc2ccc(C(O)(C(F)(F)F)C(F)(F)F)cc2)s1 , value?
0.63
